Recorded values, source patent US12435061B2.

Would you mind telling me the reported IC50 of each entry?
# targetDesc: hTRPV3 (Homo sapiens (Human), UniProt Q8NET8)
# Sequence (Q8NET8 whole entry): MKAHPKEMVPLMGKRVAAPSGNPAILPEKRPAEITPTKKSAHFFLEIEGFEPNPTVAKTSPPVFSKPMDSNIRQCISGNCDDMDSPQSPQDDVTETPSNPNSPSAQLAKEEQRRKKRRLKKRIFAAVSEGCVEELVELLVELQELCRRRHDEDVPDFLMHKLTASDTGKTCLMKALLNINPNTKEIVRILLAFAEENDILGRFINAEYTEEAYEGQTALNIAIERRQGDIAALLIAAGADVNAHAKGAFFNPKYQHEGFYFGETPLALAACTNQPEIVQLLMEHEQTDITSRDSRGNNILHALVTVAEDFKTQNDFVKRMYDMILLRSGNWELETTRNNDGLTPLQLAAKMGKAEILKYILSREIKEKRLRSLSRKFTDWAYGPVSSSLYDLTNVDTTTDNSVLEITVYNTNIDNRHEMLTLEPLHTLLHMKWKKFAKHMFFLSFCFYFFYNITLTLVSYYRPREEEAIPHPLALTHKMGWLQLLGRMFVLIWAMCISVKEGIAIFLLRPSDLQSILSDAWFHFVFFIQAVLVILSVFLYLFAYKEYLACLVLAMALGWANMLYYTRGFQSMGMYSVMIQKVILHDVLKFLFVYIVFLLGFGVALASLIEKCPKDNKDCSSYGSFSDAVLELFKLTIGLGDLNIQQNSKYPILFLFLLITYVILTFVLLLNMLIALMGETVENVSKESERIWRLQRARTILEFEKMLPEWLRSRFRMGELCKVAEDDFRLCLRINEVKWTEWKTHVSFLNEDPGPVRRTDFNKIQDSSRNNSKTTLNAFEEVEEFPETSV
# procedureText: hTRPV3 HAMA IC50 assay (Hamamatsu FDSS6000 calcium flux, TRex-293 cells)
# measurementConditions: hTRPV3 HAMA IC50 (nM) (5 min), 5 min

Some solved cases for reference:
COc1ccccc1Oc1ccc(N2CC[C@H](Oc3ncccc3Cl)C2)c(CCO)c1 [Compound 1-237] = > 20000 nM
OCc1cc(Oc2ccccc2)ccc1N1CC[C@H](Oc2ncccc2Cl)C1 [Compound 1-168] = > 20000 nM
Cc1ccccc1Oc1ccc(N2CC[C@H](Oc3ncccc3Cl)C2)c(CCO)c1 [Compound 1-235] = > 20000 nM

# map each compound to its IC50
1. OCCc1cc(Oc2ccccc2Cl)ccc1N1CC[C@H](Oc2ncccc2Cl)C1 [Compound 1-238]
2. NC(=O)c1cc(C(O)c2ccccc2)ccc1N1CC[C@H](Oc2ccc(C(F)(F)F)cn2)C1 (stereo partly drawn) [Compound 1-146]
3. Cc1ccccc1-c1ccc(N2CC[C@H](Oc3ccc(C(F)(F)F)cn3)C2)c(CO)n1 [Compound 1-182]

["> 20000 nM", "11800 nM", "19900 nM"]
